TEST_DETAILS: amyloid nucleation score (Sup35N fusion, yeast selection) (log enrichment); library NNK2; higher = more nucleation; inactive = no reads after selection;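 also: zero at mode of non-aggregating sequences after 7 days selection at 30°C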
METRIC_NAME: amyloid nucleation score

Here are 5 substances together with their reported answers.
| SUBSTANCE | METRIC_NAME | RESULT |
| --- | --- | --- |
| GLYNFLLSGQ | amyloid nucleation score | inactive |
| QSVYLPLRNVIFPVVVSKCE | amyloid nucleation score | inactive |
| CVNSLALGRVSIVGISSGWW | amyloid nucleation score | 0.284 |
| WKIDWTNVNPFVRPVGTTNG | amyloid nucleation score | 0.917 |
| KLMWERTFVCSRKRFKTYYK | amyloid nucleation score | -0.359 |

KMDSRSKTMRWYSCGSD has a reported amyloid nucleation score of 1.53

amyloid nucleation score measured on SCSWLLSEIGCESVEIRRTV = 5.51

amyloid nucleation score for RLAVVLVPRIGYSSKSSETR is 1.11

Recorded result, IARSKVGRRYHVGRFRCVCV , amyloid nucleation score: -0.095
